Test system: Mycobacteroides abscessus
Test: Antimicrobial activity against Mycobacterium abscessus isolate MC958 at day 7 by broth microdilution method
Assay type: functional
Settings: isolate MC958, 168 h
Numbered stars: 1 amine (or outer) side, 2 acyl side, 3 side chain; on linkers, the order of the positions; unused ones are H or OH. Bridge positions count the residues as written; N and C are the ends. Square brackets hold non-standard residues; d marks the D form. Peptide text beside a SMILES is read from it. * marks the point of attachment. X1 = O=C1C[C@@H](C(=O)[*:2])N([*:1])C[C@H]1CS[C@@H]1CN2CCC1CC2; NMePhe(4-NMe2) = CN[C@@H](Cc1ccc(N(C)C)cc1)C(=O)O; Picolinoyl(3-OH) = O=C(c1ncccc1O)*; Phg = N[C@H](C(=O)O)c1ccccc1; dAbu = CC[C@@H](N)C(=O)O
Quick reference: MIC of the listed items.

Here's what some known entries look like.
>>> obs_value("CCC[C@@H]1C[C@@H](C(=O)N[C@@H]([C@H]2O[C@H](SC)[C@H](O)[C@@H](O)[C@H]2O)[C@H](C)Cl)N(C)C1 [CLINDAMYCIN]")
"> 256 µg/mL"
>>> obs_value("CC[C@H]1OC(=O)[C@H](C)[C@@H](O[C@H]2C[C@@](C)(OC)[C@@H](O)[C@H](C)O2)[C@H](C)[C@@H](O[C@@H]2O[C@H](C)C[C@H](N(C)C)[C@H]2O)[C@](C)(OC)C[C@@H](C)C(=O)[C@H](C)[C@@H](O)[C@]1(C)O [CLARITHROMYCIN]")
"8 µg/mL"
>>> obs_value("CC[C@H]1OC(=O)[C@H](C)C(=O)[C@H](C)[C@@H](O[C@@H]2O[C@H](C)C[C@H](N(C)C)[C@H]2O)[C@](C)(OC)C[C@@H](C)C(=O)[C@H](C)[C@H]2N(CCCCn3cnc(-c4cccnc4)c3)C(=O)O[C@]12C [TELITHROMYCIN]")
"> 128 µg/mL"

stdin: Please report the recorded MIC for CC[C@H]1NC(=O)[C@@H](NC(=O)c2ncccc2O)[C@@H](C)OC(=O)[C@H](c2ccccc2)NC(=O)[C@@H]2CC(=O)[C@H](CS[C@@H]3CN4CCC3CC4)CN2C(=O)[C@H](Cc2ccc(N(C)C)cc2)N(C)C(=O)[C@@H]2CCCN2C1=O [QUINUPRISTIN] ({Picolinoyl(3-OH)}-T[dAbu]P[NMePhe(4-NMe2)][X1][Phg]; ester 1-C) .
stdout: > 256 µg/mL
